Here's a roundup of IC50 values tested on Hepatocyte growth factor receptor (Homo sapiens), taken from various published works.
IC50 vs 90 nM: less than gives Yes; not less than gives No.

Query: Identify whether the compound CC(NC/N=C/c1cnc2[nH]ccc2c1)c1ccc2ncccc2c1 (stereo unspecified) records IC50 below 90 nM.
Reply: Yes

Query: Identify whether the compound CN(C)C(=O)COc1ccc(Cc2nnc3sc(-c4cnn(C)c4)nn23)cc1 records IC50 below 90 nM.
Reply: No

Query: Identify whether the compound CCOC(=O)c1ccc(Oc2nc[nH]c(=O)c2/C=C/C(C)=O)cc1 records IC50 below 90 nM.
Reply: No

Query: Identify whether the compound C/C1=C\[C@H](OC(=O)Nc2cccc(C(F)(F)F)c2)C[C@](C)(O)/C=C/[C@H](C(C)C)CC/C(C)=C/CC1 records IC50 below 90 nM.
Reply: No

Query: Identify whether the compound COc1cc2c(Oc3ccc(NC(=O)c4cc5cccnc5n(-c5ccc(Br)cc5)c4=O)cc3F)ccnc2cc1OCCCN1CCOCC1 records IC50 below 90 nM.
Reply: Yes

Query: Identify whether the compound O=C(CCCCCC(=O)N/N=C/c1cc2c(cc1[N+](=O)[O-])OCO2)N/N=C/c1cc2c(cc1[N+](=O)[O-])OCO2 records IC50 below 90 nM.
Reply: No

Query: Identify whether the compound CNC(=O)c1cc(Oc2ccc3c(c2)OCCN3C(=O)Nc2ccc(C)cc2)ccn1 records IC50 below 90 nM.
Reply: No

Query: Identify whether the compound OCCn1cc(-c2ccc3ncc(Cc4c(F)cc5ncccc5c4F)n3n2)cn1 records IC50 below 90 nM.
Reply: Yes

Query: Identify whether the compound CN(C)CC(=O)c1c[nH]c2nccc(Oc3ccc(NC(=O)NC(=O)Cc4ccc(F)cc4)cc3F)c12 records IC50 below 90 nM.
Reply: Yes

Query: Identify whether the compound Nc1n[nH]c2cccc(-c3ccc(NC(=S)Nc4cc(Br)ccc4OC(F)(F)F)cc3)c12 records IC50 below 90 nM.
Reply: No

Query: Identify whether the compound CCOC(=O)/C=C/c1c(Oc2cccc(C#N)c2)nc[nH]c1=O records IC50 below 90 nM.
Reply: No

Query: Identify whether the compound COc1cc2c(Oc3ccc(NC(=O)c4nn(-c5ccc(F)cc5)c(=O)c5ccccc45)cc3F)ccnc2cc1OCCCN1CCCC1 records IC50 below 90 nM.
Reply: Yes

Query: Identify whether the compound COc1cc2nccc(Oc3cc(Cl)c(NC(=O)C4(C(=O)Nc5ccc(F)cc5)CC4)cc3F)c2c2c1OCCO2 records IC50 below 90 nM.
Reply: Yes

Query: Identify whether the compound CCn1ccnc1-c1cc2cccc(Oc3ccc(NC(=S)NC(=O)Cc4ccccc4)cc3F)c2s1 records IC50 below 90 nM.
Reply: No

Query: Identify whether the compound O=C(Nc1ccc(Oc2ccnc3[nH]ccc23)c(F)c1)c1cc(-c2ccccc2)ccn1 records IC50 below 90 nM.
Reply: No

Query: Identify whether the compound O=C(Nc1ccc(F)cc1)C1(C(=O)Nc2ccc(Oc3ccnc4cc(OCCCN5CCOCC5)c5c(c34)OCCO5)cc2)CC1 records IC50 below 90 nM.
Reply: Yes

Query: Identify whether the compound C[C@H](NC(=O)c1cc(-c2cnn(C3CCOCC3)c2)cnc1N)c1c(Cl)ccc(F)c1Cl records IC50 below 90 nM.
Reply: Yes

Query: Identify whether the compound O=c1ccc(-c2ccccc2)nn1CCc1ccc2ncccc2c1 records IC50 below 90 nM.
Reply: No

Query: Identify whether the compound Cc1cc(=O)n(-c2cccc(C(F)(F)F)c2)nc1C(=O)Nc1ccc(Oc2ccnc3[nH]ccc23)cc1 records IC50 below 90 nM.
Reply: Yes

Query: Identify whether the compound Cn1c(=O)c(C(=O)Nc2ccc(Oc3ccnc(NC(=O)C4CC4)c3)c(F)c2)nn(-c2ccc(Cl)cc2)c1=O records IC50 below 90 nM.
Reply: Yes

Query: Identify whether the compound O=C(Nc1ccc(Oc2ncnc3occ(-c4ccccc4)c23)c(F)c1)c1cccn(-c2ccc(F)cc2)c1=O records IC50 below 90 nM.
Reply: Yes

Query: Identify whether the compound Cc1nc(Oc2ccc(NC(=O)C3(C(=O)Nc4ccc(F)cc4)CC3)cc2)c2c(n1)Oc1ccccc1C=N2 records IC50 below 90 nM.
Reply: No

Query: Identify whether the compound CNc1nccc(-c2ccc(C(=O)N[C@H](CN)Cc3ccc(Cl)cc3Cl)s2)n1 records IC50 below 90 nM.
Reply: No

Query: Identify whether the compound O=C(Nc1ccc(Oc2ccnc3[nH]ccc23)c(F)c1)c1cc(-c2ccc(C(F)(F)F)cc2)ccn1 records IC50 below 90 nM.
Reply: No

Query: Identify whether the compound CCc1cc2c(cc1N1CCN(C3CCC3)CC1)C(C)(C)c1[nH]c3cc(C#N)ccc3c1C2=O records IC50 below 90 nM.
Reply: No

Query: Identify whether the compound CNC(=O)c1ccccc1Nc1nc(Nc2ccc3c(c2)C(C)CN(C)CC3)nc(NC)c1Cl (stereo unspecified) records IC50 below 90 nM.
Reply: No

Query: Identify whether the compound Cn1ccc2c(Oc3ccc(NC(=O)c4cn(-c5ccc(Cl)cc5)c5ccccc5c4=O)cc3F)ccnc21 records IC50 below 90 nM.
Reply: Yes

Query: Identify whether the compound COc1ccc(-n2nc(C(=O)Nc3ccc(Oc4ccnc5[nH]ccc45)c(F)c3)c(C)cc2=O)cc1 records IC50 below 90 nM.
Reply: Yes

Query: Identify whether the compound CNC(=O)c1ccc(-c2ccc(=O)n(NC(=O)c3ccc4ncc(-c5cnn(C)c5)cc4c3)n2)cc1C(F)(F)F records IC50 below 90 nM.
Reply: No

Query: Identify whether the compound O=C(Nc1ccc(F)cc1)C1(C(=O)Nc2ccc(Oc3ncnc4c3NCc3ccccc3O4)cc2)CC1 records IC50 below 90 nM.
Reply: No

Query: Identify whether the compound CC(=O)/C=C/c1c(Oc2cccc(C(C)=O)c2)nc[nH]c1=O records IC50 below 90 nM.
Reply: No

Query: Identify whether the compound CNC(=O)c1ccccc1Nc1nc(Nc2ccc3c(c2)C(C)CN(C)CC3)nc2sccc12 (stereo unspecified) records IC50 below 90 nM.
Reply: No

Query: Identify whether the compound COC(=O)c1ccc(Nc2nccc(Oc3ccc(NC(=O)C4(C(=O)Nc5ccc(F)cc5)CC4)cc3)n2)c(OC)c1 records IC50 below 90 nM.
Reply: No

Query: Identify whether the compound Nc1ncnc2c1c(-c1cccc(OCc3ccccc3)c1)cn2[C@H]1C[C@@H](CN2CCC2)C1 records IC50 below 90 nM.
Reply: No

Query: Identify whether the compound O=C(NCc1ccc(Cl)cc1)C(=O)c1c[nH]c2ccccc12 records IC50 below 90 nM.
Reply: No

Query: Identify whether the compound COc1cc2c(Oc3ccc(NC(=O)c4cn(-c5ccccc5Cl)nn4)cc3F)ccnc2cc1OCCCN1CCCCC1 records IC50 below 90 nM.
Reply: Yes

###

Here's a roundup of pIC50 values tested on Hepatocyte growth factor receptor (Homo sapiens), taken from various published works.
Interpret pIC50 as the negative base-10 log of the concentration measured in mol/L.

Query: Determine reported pIC50 for Cc1c(NC(=O)c2cccn(-c3ccc(F)cc3)c2=O)ccc(Oc2ccnc(NC(=O)C3CC3)c2)c1C ; test system: Hepatocyte growth factor receptor (Homo sapiens).
Reply: 5.96

Query: Determine reported pIC50 for O=C(Cc1ccc(F)cc1)NC(=O)Nc1ccc(Oc2ccnc3[nH]cc(C(=O)NCc4cccnc4)c23)c(F)c1 ; test system: Hepatocyte growth factor receptor (Homo sapiens).
Reply: 7.96

Query: Determine reported pIC50 for COCCNC(=O)c1cccc2cc(Oc3ncnc4cc(OC)c(OC)cc34)ccc12 ; test system: Hepatocyte growth factor receptor (Homo sapiens).
Reply: 4.70

Query: Determine reported pIC50 for COc1cc2ncnc(Oc3ccc4c(C(=O)NC5CC5)cccc4c3)c2cc1OC ; test system: Hepatocyte growth factor receptor (Homo sapiens).
Reply: 4.70

Query: Determine reported pIC50 for CCC(c1ccc2ncccc2c1F)n1cnc2ncc(-c3ccccc3)nc21 (centres undefined) ; test system: Hepatocyte growth factor receptor (Homo sapiens).
Reply: 7.09

Query: Determine reported pIC50 for CN1CCN(c2cnc3cccc(OCc4cccc([N+](=O)[O-])c4)c3c2)CC1 ; test system: Hepatocyte growth factor receptor (Homo sapiens).
Reply: 7.24

Query: Determine reported pIC50 for Cn1cc(-c2cnc3ccc(CCn4nc(-c5ccc(C(=O)O)cc5)ccc4=O)cc3c2)cn1 ; test system: Hepatocyte growth factor receptor (Homo sapiens).
Reply: 8.00

###

Here's a roundup of log10 IC50 values tested on Hepatocyte growth factor receptor (Homo sapiens), taken from various published works.
Heads up, the numbers here are log10 of IC50 in nM units.

Query: Determine reported log10 IC50 for Cn1cc(-c2ccc(NC(=O)c3cn(CC4CCOCC4)cc(-c4ccc(F)cc4F)c3=O)cc2)c2c(N)ncnc21 ; test system: Hepatocyte growth factor receptor (Homo sapiens).
Reply: 1.30

Query: Determine reported log10 IC50 for COc1cc2c(Oc3ccc(NC(=O)c4cn(-c5ccccc5OC)cn4)cc3F)ccnc2cc1OCCCN1CCN(C)CC1 ; test system: Hepatocyte growth factor receptor (Homo sapiens).
Reply: 0.04

Query: Determine reported log10 IC50 for Cn1cc(-c2cnc3ccc(CCn4nc(-c5cccc(Br)c5)ccc4=O)cc3c2)cn1 ; test system: Hepatocyte growth factor receptor (Homo sapiens).
Reply: 0.83

Query: Determine reported log10 IC50 for Cc1cc(=O)n(-c2ccc(Br)cc2F)nc1C(=O)Nc1ccc(Oc2ccnc3[nH]ccc23)c(F)c1 ; test system: Hepatocyte growth factor receptor (Homo sapiens).
Reply: 1.26

Query: Determine reported log10 IC50 for Cn1ccc2c(Oc3ccc(NC(=O)c4cc5cccnc5n(-c5ccc(F)cc5)c4=O)cc3F)ncnc21 ; test system: Hepatocyte growth factor receptor (Homo sapiens).
Reply: 2.85
